The measurements presented in this section are drawn from paper PMC9551036.

test: Plasma protein binding; assay type: in vitro ADME; details: rat, 10% plasma (plasma dilution in PBS), 10% rat; read-out: PPB fu 10% Rat
MEASURED_QUANTITY: fraction unbound at 5 h, 3 µmol/L

Prompt line: Give its fraction unbound at 5 h, 3 µmol/L value. Item: Cc1ncsc1-c1ccc([C@H](CCCCCN2CCC(c3ccc4c(c3)n(C3CCCC3)c3nc(=O)c5c(Br)cccc5n43)CC2)NC(=O)[C@@H]2C[C@@H](O)CN2C(=O)[C@@H](NC(=O)C2(F)CC2)C(C)(C)C)cc1 [compound 11]
Response line: < 0.00047

Prompt line: Give its fraction unbound at 5 h, 3 µmol/L value. Item: Cc1ncsc1-c1ccc(C(CCC(C)CCN2CCC(c3ccc4c(c3)n(C3CCCC3)c3nc(=O)c5c(Br)cccc5n43)CC2)NC(=O)C2CC(O)CN2C(=O)C(NC(=O)C2(F)CC2)C(C)(C)C)cc1 (centres unmarked) [ACBI2]
Response line: < 0.00054

###

molecular target: VCB: PROTAC: SMARCA2^BD ternary complex (Homo sapiens, UniProt P40337+P51531); assay: TR-FRET ternary complex affinity and cooperativity, SMARCA2; format: binding; design: P51531-2, residues 1373-1493 with additional N-terminal SM residues; GST (TEV site) (N); His6 (TEV site) (N, cleaved yes); made in house; host or cells: SMARCA2^BD: Escherichia coli BL21(DE3); settings: Ternary SMARCA2 BD EC50 (PROTAC + VCB), PROTAC + VCB; individual replicates
Sequence (P51531 with tags, fused parts or gaps isoform P51531-2): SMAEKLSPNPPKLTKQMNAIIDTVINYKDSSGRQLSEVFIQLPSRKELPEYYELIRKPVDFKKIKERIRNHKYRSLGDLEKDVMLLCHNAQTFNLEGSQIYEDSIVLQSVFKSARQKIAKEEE
Sequence (P40337 54-213): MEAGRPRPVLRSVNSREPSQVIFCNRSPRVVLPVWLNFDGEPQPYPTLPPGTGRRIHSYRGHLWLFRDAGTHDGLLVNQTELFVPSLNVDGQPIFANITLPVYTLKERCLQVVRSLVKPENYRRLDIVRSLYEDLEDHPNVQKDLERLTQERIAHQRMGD
Sequence (Q15369 17-112 partner): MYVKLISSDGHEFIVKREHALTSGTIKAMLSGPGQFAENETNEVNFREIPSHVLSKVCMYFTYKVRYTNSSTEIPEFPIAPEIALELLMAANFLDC
Sequence (Q15370 1-104 partner): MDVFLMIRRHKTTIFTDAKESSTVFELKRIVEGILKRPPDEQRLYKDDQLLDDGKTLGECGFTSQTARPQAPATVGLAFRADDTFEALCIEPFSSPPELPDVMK
MEASURED_QUANTITY: EC50 (nM)
Field format: number, assumed nM, no unit text.

Prompt line: Give its EC50 value. Item: O=c1nc2n(C3CCCC3)c3cc(C4CCNCC4)ccc3n2c2cccc(Br)c12 [compound 4]
Response line: 73.5

###

assay: Pharmacokinetic analyses in mouse; format: in vivo; conditions: mouse, plasma, oral, 30 mg/kg, 30 mg/kg p.o.; time 0.333 h; individual animals; read-out: Concentration
MEASURED_QUANTITY: concentration at 0.333 h (nM)
Field format: number, assumed nM, no unit text.

Prompt line: Give its concentration at 0.333 h value. Item: Cc1ncsc1-c1ccc(C(CCC(C)CCN2CCC(c3ccc4c(c3)n(C3CCCC3)c3nc(=O)c5c(Br)cccc5n43)CC2)NC(=O)C2CC(O)CN2C(=O)C(NC(=O)C2(F)CC2)C(C)(C)C)cc1 (stereo not shown)
Response line: 898

###

experiment: Cell viability assay (CellTiter Glo) in a panel of cell lines; type: cell-based, human; conditions: human, HCC4006 cells, HCC4006; log10 conc -6.50446 mol/l;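 further: percent of DMSO-treated control cells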
MEASURED_QUANTITY: viability at 0.313 µM

Prompt line: Give its viability at 0.313 µM value. Item: Cc1ncsc1-c1ccc(C(CCC(C)CCN2CCC(c3ccc4c(c3)n(C3CCCC3)c3nc(=O)c5c(Br)cccc5n43)CC2)NC(=O)C2CC(O)CN2C(=O)C(NC(=O)C2(F)CC2)C(C)(C)C)cc1 (stereo not shown) [ACBI2]
Response line: 53.4%

###

test: Cell viability assay (CellTiter Glo) in a panel of cell lines; type: cell-based, human; settings: human, KYSE-30 cells, KYSE-30; log10 conc -5.90309 mol/l;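 further: percent of DMSO-treated control cells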
MEASURED_QUANTITY: viability at 1.25 µM (%)
Field format: number, assumed %, no unit text.

Prompt line: Give its viability at 1.25 µM value. Item: Cc1ncsc1-c1ccc(C(CCC(C)CCN2CCC(c3ccc4c(c3)n(C3CCCC3)c3nc(=O)c5c(Br)cccc5n43)CC2)NC(=O)C2CC(O)CN2C(=O)C(NC(=O)C2(F)CC2)C(C)(C)C)cc1 (stereo not shown)
Response line: 91.1
